Several publications report IC50 on UniProt O75530; those values are gathered here.
parameter: IC50 (nM)

Consider the worked cases shown below.
- smiles.record: "NS(=O)(=O)c1ccc(-c2cnc(NCc3c(F)ccc4c3CCO4)n3cncc23)cc1"
  parameter: "IC50"
  recorded.result: 12.7
- smiles.record: "Cc1nc(C2CC2)ncc1-c1cnc(NCc2c(F)ccc3c2CCO3)n2cnnc12"
  parameter: "IC50"
  recorded.result: 4.9
- smiles.record: "O=S(=O)(C1CC1)N1CC=C(c2cnc(NCc3c(F)ccc4c3CCO4)n3cnnc23)CC1"
  parameter: "IC50"
  recorded.result: 2.9
- smiles.record: "Cc1ncn2c(NCc3c(F)ccc4c3CCO4)ncc(-c3ccc(S(C)(=O)=O)cc3)c12"
  parameter: "IC50"
  recorded.result: 15.6
- smiles.record: "COc1cccc(F)c1CNc1ncc(-c2cccnc2C)c2c(C#N)ncn12"
  parameter: "IC50"
  recorded.result: 139
- smiles.record: "Cc1cnc(Cl)cc1-c1cnc(NCc2c(F)ccc3c2CCO3)n2cnnc12"
  parameter: "IC50"
  recorded.result: 8.2

1: c1ccc(-c2cnc(NCc3cccc4occc34)n3cnnc23)cc1
2: Cc1ncccc1-c1cnc(NCc2c(F)ccc3c2CCO3)n2cnc(C(=O)NCCO)c12
Query: Param metric = IC50; output whichever of 1 , 2 has the minimum value. # respond with the chosen item's label
Result: 2
(2: 7.7 nM, 1: 363 nM)

P: CS(=O)(=O)CCOc1cncc(-c2cnc(NCc3cccc4c3CCO4)n3cnnc23)c1
Q: Fc1ccc2c(c1CNc1ncc(F)c3nncn13)CCO2
R: O=C1CN(CCc2ccc(-c3cnc(NCc4cccc5c4CCO5)n4cnnc34)cn2)CCN1
S: C=CC(=O)N1CC=C(c2cnc(NCc3c(F)ccc4c3CCO4)n3cnnc23)CC1
Query: Ordering: ascending IC50. Your task in answering is to list the labels in the requested order.
Result: S, R, P, Q

###

Several publications report IC50 on EED-EZH2 (Homo sapiens (Human)); those values are gathered here.
parameter: IC50 (nM)

Consider the worked cases shown below.
- compound: "Cc1cnc(C(F)(F)F)cc1-c1cnc(NCc2c(F)ccc3c2CCO3)n2cnnc12"
  IC50 [nM]: 5.4
- compound: "CCOc1ccc(-c2cnc(NCc3cccc4c3CCO4)n3cnnc23)cn1"
  IC50 [nM]: 75.6
- compound: "Nc1ccncc1-c1cnc(NCc2cccc3c2CCO3)n2cnnc12"
  IC50 [nM]: 27.5
- compound: "CN(C)C(=O)c1cccc(-c2cnc(NCc3cccc4c3CCO4)n3cnnc23)c1"
  IC50 [nM]: 30.9
- compound: "CN(C)CC(=O)N1CC=C(c2cnc(NCc3c(F)ccc4c3CCO4)n3cnnc23)CC1"
  IC50 [nM]: 4.1

I: CS(=O)(=O)N1CC=C(c2cnc(NCc3ccco3)n3cnnc23)CC1
II: c1cc(CNc2ncc(-c3ccc(C4CC4)nc3)c3nncn23)c2c(c1)OCC2
Query: Param metric = IC50; output whichever of I , II has the minimum value. # respond with the chosen item's label
Result: II
(II: 18.3 nM, I: 334 nM)

a: CCOC(=O)N1CC=C(c2cnc(NCc3c(F)ccc4c3CCO4)n3cnnc23)CC1
b: CS(=O)(=O)N1CCC=C(c2cnc(NCc3c(F)ccc4c3CCO4)n3cnnc23)CC1
c: O=C(NC1CC=C(c2cnc(NCc3ccco3)n3cnnc23)CC1)c1ccccc1 (stereo not drawn)
d: CCS(=O)(=O)c1ncn2c(NCc3c(F)ccc4c3CCO4)ncc(-c3cnc(C)nc3C)c12
Query: List from greatest to least IC50. Your task in answering is to list the labels in the requested order.
Result: c, a, d, b

I: Cc1nccc(-c2cnc(NCc3c(F)ccc4c3CCO4)n3cnnc23)c1C
II: Cc1cc(-c2cnc(NCc3c(F)ccc4c3CCO4)n3cnnc23)c(C)cn1
Query: Identify the entry with the larger IC50. Options: I and II # respond with the chosen item's label
Result: I

A: N#Cc1ncn2c(NCc3c(F)ccc4c3CCO4)ncc(-c3ccc(CN4CCCC4)cc3)c12
B: N#Cc1ccc(-c2cnc(NCc3c(F)ccc4c3CCO4)n3cncc23)cn1
C: CC(C)n1cc(-c2cnc(NCc3c(F)ccc4c3CCO4)n3cnnc23)c(C(F)(F)F)n1
Query: List from greatest to least IC50. Your task in answering is to list the labels in the requested order.
Result: B, A, C

###

Several publications report pIC50 on EED-EZH2 (Homo sapiens (Human), UniProt O75530); those values are gathered here.
pIC50: −log10 of the molar value.
parameter: pIC50

P: Cc1cncc(-c2cnc(NCc3c(F)ccc4c3CCO4)n3cnnc23)c1
Q: Cc1ccc(S(=O)(=O)N2CC=C(c3cnc(NCc4ccco4)n4cnnc34)CC2)cc1
R: CCOC(=O)c1ncn2c(NCc3c(F)cccc3OC)ncc(-c3cnc(C)nc3C)c12
S: c1cc(CNc2ncc(-c3ccc(N4CCNCC4)nc3)c3cncn23)c2ccoc2c1
Query: Returns the items ordered by pIC50, from maximum to minimum. Your task in answering is to list the labels in the requested order.
Result: P, R, S, Q

###

Several publications report IC50 on EED-EZH2 (Homo sapiens (Human)); those values are gathered here.
parameter: IC50 (nM)

- smiles.record: "Cc1cc(-c2cnc(NCc3cccc4c3CCO4)n3cnnc23)cnc1N1CCCC1"
  recorded.result: 728

1: CC(C)Oc1ccc(-c2ncn3c(NCc4c(F)ccc5c4CCO5)ncc(-c4ccc(S(C)(=O)=O)cc4)c23)cc1
2: COc1cc(CNc2ncc(-c3cccnc3C)c3c(C#N)ncn23)c(F)cc1F
3: Cc1cc(OC(F)F)ncc1-c1cnc(NCc2c(F)ccc3c2CCO3)n2cnnc12
4: Cc1cn(-c2cnc(NCc3c(F)ccc4c3CCO4)n3cncc23)cn1
Query: List from greatest to least IC50. Your task in answering is to list the labels in the requested order.
Result: 2, 1, 4, 3
(2: 29.6 nM, 1: 11.4 nM, 4: 3.7 nM, 3: 2.2 nM)

A: CCOC(=O)c1ncn2c(NCc3c(F)ccc4c3CCO4)ncc(-c3ccc(C)nc3C)c12
B: c1cc(CNc2ncc(-c3ccc(N4CCSCC4)nc3)c3nncn23)c2c(c1)OCC2
Query: Identify the entry with the larger IC50. Options: A and B # respond with the chosen item's label
Result: B

1: O=C(c1ccc(-c2cnc(NCc3cccc4c3CCO4)n3cnnc23)cn1)N1CCCC1
2: Cc1ccc(-c2ncn3c(NCc4c(F)ccc5c4CCO5)ncc(-c4cccnc4C)c23)cn1
3: CN1CCC(c2cnc(NCc3c(F)ccc4c3CCO4)n3cnnc23)CC1
Query: List from greatest to least IC50. Your task in answering is to list the labels in the requested order.
Result: 3, 2, 1
(3: 15 nM, 2: 6.2 nM, 1: 3.7 nM)

1: Cc1cn(-c2cnc(NCc3c(F)ccc4c3CCO4)n3cnc(C#N)c23)cn1
2: CN(C)CCc1ccc(-c2cnc(NCc3cccc4c3CCO4)n3cnnc23)cn1
Query: Identify the entry with the larger IC50. Options: 1 and 2 # respond with the chosen item's label
Result: 2

a: CN(C)C(=O)CCc1ccc(-c2cnc(NCc3cccc4c3CCO4)n3cnnc23)cn1
b: COc1nccc(-c2cnc(NCc3c(F)ccc4c3CCO4)n3cnnc23)c1C
Query: Identify the entry with the larger IC50. Options: a and b # respond with the chosen item's label
Result: b
(b: 12.9 nM, a: 5.7 nM)

###

Several publications report pIC50 on EED-EZH2 (Homo sapiens (Human)); those values are gathered here.
pIC50: −log10 of the molar value.
parameter: pIC50

Consider the worked cases shown below.
- compound: "CC(c1ccc(-c2cnc(NCc3c(F)ccc4c3CCO4)n3cnnc23)cc1)N1CCCC1 (centres unmarked)"
  recorded.result: 7.36
- compound: "CC(C)(C)NC(=O)N1CCC(c2cnc(NCc3c(F)ccc4c3CCO4)n3cnnc23)CC1"
  recorded.result: 8.18
- compound: "O=C(C1CCOCC1)N1CC=C(c2cnc(NCc3c(F)ccc4c3CCO4)n3cnnc23)CC1"
  recorded.result: 8.07
- compound: "Cc1cnccc1-c1cnc(NCc2c(F)ccc3c2CCO3)n2cncc12"
  recorded.result: 8.12
- compound: "O=CN1CCN(CCc2ccc(-c3cnc(NCc4cccc5c4CCO5)n4cnnc34)cn2)CC1"
  recorded.result: 7.91
- compound: "Fc1ccc2c(c1CNc1ncc(-c3cncnc3)c3nncn13)CCO2"
  recorded.result: 8.04

P: Cc1ccc(-c2cnc(NCc3cccc4c3CCO4)n3cnnc23)cn1
Q: CS(=O)(=O)c1ccc(-c2cnc(NCc3cccc4c3CCO4)n3cnnc23)c(F)c1
Query: Identify the entry with the larger pIC50. Options: P and Q # respond with the chosen item's label
Result: Q
(Q: 8.00, P: 7.15)

###

Several publications report IC50 on EED-EZH2 (Homo sapiens (Human)); those values are gathered here.
parameter: IC50 (nM)

Consider the worked cases shown below.
- compound: "NC(=O)c1ccccc1-c1cnc(NCc2c(F)ccc3c2CCO3)n2cnnc12"
  parameter: "IC50"
  recorded.result: 19.2
- compound: "Fc1ccc2c(c1CNc1ncc(-c3cnccc3C(F)F)c3cncn13)CCO2"
  parameter: "IC50"
  recorded.result: 10.2
- compound: "Cc1cc(-c2cnc(NCc3c(F)ccc4c3CCO4)n3cnc(C#N)c23)n(C)n1"
  parameter: "IC50"
  recorded.result: 3.5
- compound: "Cc1nn(C[C@@H](C)O)c(C)c1-c1cnc(NCc2c(F)ccc3c2CCO3)n2cnnc12"
  parameter: "IC50"
  recorded.result: 3.5
- compound: "Fc1ccc2c(c1CNc1ncc(-c3ccc(N4CCOCC4)nc3)c3nncn13)CCO2"
  parameter: "IC50"
  recorded.result: 19.2

1: Fc1ccc2c(c1CNc1ncc(-n3ccnc3)c3nncn13)CCO2
2: CN(C)S(=O)(=O)c1ccc(-c2cnc(NCc3c(F)ccc4c3CCO4)n3cncc23)cc1
3: Cc1cc(-c2cnc(NCc3cccc4c3CCO4)n3cnnc23)cnc1N1CCNC(=O)C1
4: COc1ncccc1-c1cnc(NCc2c(F)ccc3c2CCO3)n2cnnc12
Query: Ordering: ascending IC50. Your task in answering is to list the labels in the requested order.
Result: 1, 2, 4, 3

a: CCNC(=O)N1CCC(c2cnc(NCc3c(F)ccc4c3CCO4)n3cnnc23)CC1
b: OCCNc1ncc(-c2cnc(NCc3c(F)ccc4c3CCO4)n3cncc23)cn1
c: COc1ncc(-c2cnc(NCc3cccc4c3CCO4)n3cnnc23)cn1
Query: Ordering: ascending IC50. Your task in answering is to list the labels in the requested order.
Result: a, b, c
(a: 5.4 nM, b: 8.6 nM, c: 29.1 nM)

I: Cc1c(-c2cnc(NCc3c(F)ccc4c3CCO4)n3cnnc23)ccnc1F
II: Cc1cc(-c2cnc(NCc3c(F)ccc4c3CCO4)n3cncc23)ccn1
III: COc1cc(F)c(-c2cnc(NCc3c(F)ccc4c3CCO4)n3cnnc23)cn1
IV: Cc1ncc(-c2cnc(NCc3c(F)ccc4c3CCO4)n3cnc(-c4ncco4)c23)c(C)n1
Query: Ordering: ascending IC50. Your task in answering is to list the labels in the requested order.
Result: III, I, IV, II

1: CN(C)Cc1ccc(-c2cnc(NCc3cccc4occc34)n3cnnc23)cc1
2: Cc1cc(S(C)(=O)=O)ccc1-c1cnc(NCc2c(F)ccc3c2CCO3)n2cncc12
Query: Param metric = IC50; output whichever of 1 , 2 has the minimum value. # respond with the chosen item's label
Result: 1

A: c1cc(CNc2ncc(-c3cncc(N4CCNCC4)c3)c3nncn23)c2c(c1)OCC2
B: Cn1nccc1-c1cnc(NCc2cccc3c2CCO3)n2cnnc12
C: Cc1ncccc1-c1cnc(NCc2c(F)ccc3c2C(O)CO3)n2cnnc12 (stereo not shown)
Query: List from greatest to least IC50. Your task in answering is to list the labels in the requested order.
Result: A, C, B
(A: 21.6 nM, C: 13.8 nM, B: 5.5 nM)

a: CC(C)S(=O)(=O)c1ccc(-c2cnc(NCc3c(F)ccc4c3CCO4)n3cncc23)cc1
b: Cc1cc(F)ccc1-c1cnc(NCc2c(F)ccc3c2CCO3)n2cnnc12
Query: Param metric = IC50; output whichever of a , b has the minimum value. # respond with the chosen item's label
Result: b
